test: in vitro; details: rat, gh3-tre-luc cells, AC50 (uM) modified / 1000, Tox21_110001=Tox21_200865; viability, 1 nM T3 present, 24 h
recorded-endpoint: CC50 at 24 h

Item CCCCCl [1-Chlorobutane] : provide CC50 at 24 h
> 90 µM

* * *

system: Tox21 cell viability assays (different cell types); experiment: Global cytotoxicity: eighteen Tox21 cell viability assays; type: cell-based; conditions: # active of 18 total Tox21 viability assays
recorded-endpoint: GLOBAL CYTOTOXICITY cytotox.number_Active
# print the numeric value only

Recorded GLOBAL CYTOTOXICITY cytotox.number_Active, per entry:
>  <compound>
CC(C)(c1ccccc1)c1ccc(O)c(C(C)(C)c2ccccc2)c1

>  <reading>
17

$$$$
>  <compound>
CC1(C)COP(Oc2ccccc2)OC1

>  <reading>
0

$$$$
>  <compound>
O=C(O)Cc1cc(I)c(Oc2cc(I)c(O)c(I)c2)c(I)c1

>  <reading>
5

$$$$

Jot down GLOBAL CYTOTOXICITY cytotox.number_Active (Tox21 cell viability assays (different cell types)) of CC(C)(C)CC(C)(C)c1ccc(O)c(Cc2ccc(Cl)cc2Cl)c1 [Clofoctol, reference compound] .
16

* * *

assay: in vitro; settings: rat, gh3-tre-luc cells, AC50 (uM) modified / 1000
Structures can show the parent of a compound that is named as a salt.
recorded-endpoint: CC50 at 24 h

// known answers, use as guide
>  <compound>
O=C1[C@H](CC[C@H](O)c2ccc(F)cc2)[C@@H](c2ccc(O)cc2)N1c1ccc(F)cc1

>  <CC50 at 24 h>
> 50 µM

$$$$
>  <compound>
C=CC(=O)OCCN(C)C [2-(Dimethylamino)ethyl acrylate]

>  <CC50 at 24 h>
> 90 µM

$$$$
>  <compound>
CN(C)C(=O)Oc1ccc[n+](C)c1 [Pyridostigmine bromide]

>  <CC50 at 24 h>
> 50 µM

$$$$
>  <compound>
CCCCCCC=O

>  <CC50 at 24 h>
> 90 µM

$$$$
>  <compound>
Cc1ccccc1CCl

>  <CC50 at 24 h>
> 90 µM

$$$$
>  <compound>
CNC(=O)C[C@@H](N)C(=O)N[C@@H](C(=O)N[C@@H]1C(=O)N2[C@@H]1SC(C)(C)[C@@H]2C(=O)O)c1ccc(O)cc1

>  <CC50 at 24 h>
> 50 µM

$$$$
>  <compound>
CC=C(Cl)Cl

>  <CC50 at 24 h>
> 90 µM

$$$$
>  <compound>
O=C1c2ccccc2C(=O)C1c1ccc2ccccc2n1

>  <CC50 at 24 h>
> 50 µM

$$$$

Answer with reported CC50 at 24 h of CCCCCCCCCCOC(C)=O [Decyl acetate]
> 90 µM

Give CC50 at 24 h for Cc1nnc2n1-c1ccc(Cl)cc1C(c1ccccc1Cl)=NC2
> 50 µM

Look up and state reported CC50 at 24 h for Cc1cccc(C)c1OCC(C)N (stereo not shown) [Mexiletene hydrochloride]
> 50 µM

Note CC50 at 24 h for the compound shown: CC(=O)OC(C)C [Isopropyl acetate]
> 90 µM

Determine from records and report CC50 at 24 h for CCCCCCC(=O)O[C@H]1CC[C@H]2[C@@H]3CCc4cc(O)ccc4[C@H]3CC[C@]12C [Estradiol enanthate]
> 50 µM

Give CC50 at 24 h for the following compound: OCCc1ccccn1
> 90 µM

Identify CC50 at 24 h associated with the compound CC=C1CC2C=CC1C2 (stereo not shown)
> 90 µM
